For each of the compounds below, state its Kd.
Biological target: SH2D1B SH2 domain (Homo sapiens, UniProt O14796)
Sequence (O14796 5-101 limits assumed): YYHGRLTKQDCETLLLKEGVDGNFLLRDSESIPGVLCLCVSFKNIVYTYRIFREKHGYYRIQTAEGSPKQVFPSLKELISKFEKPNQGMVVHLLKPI
Residues, ends and D or L forms follow the SMILES beside them.

Give Kd for CSCC[C@H](NC(=O)[C@H](Cc1ccc(OP(=O)(O)O)cc1)NC(=O)[C@H](CCC(=O)O)NC(=O)[C@H](Cc1ccc(O)cc1)NC(=O)CNC(=O)[C@@H](N)CC(C)C)C(=O)N[C@@H](CC(=O)O)C(=O)N[C@H](C(=O)NCC(=O)N[C@@H](CO)C(=O)N[C@@H](CC(=O)O)C(=O)N[C@@H](CC(C)C)C(=O)N[C@@H](CC(=O)O)C(=O)O)C(C)C [ErbB3 1224 13-mer] (HELM PEPTIDE1{L.G.Y.E.[O=C([C@H](Cc1ccc(OP(=O)(O)O)cc1)N[*:1])[*:2]].M.D.V.G.S.D.L.D}$$$$V2.0)
1470 nM

Give Kd for CC[C@H](C)[C@H](NC(=O)[C@@H]1CCCN1C(=O)[C@@H](NC(=O)[C@H](CCCCN)NC(=O)[C@H](C)NC(=O)[C@H](CCC(=O)O)NC(=O)[C@H](CO)NC(=O)[C@H](Cc1ccc(OP(=O)(O)O)cc1)NC(=O)[C@H](CC(C)C)NC(=O)[C@H](CC(C)C)NC(=O)[C@H](CCC(N)=O)NC(=O)[C@@H](N)CCCCN)[C@@H](C)O)C(=O)N[C@@H](CC(=O)O)C(=O)O [ErbB3 868 13-mer] (HELM PEPTIDE1{K.Q.L.L.[O=C([C@H](Cc1ccc(OP(=O)(O)O)cc1)N[*:1])[*:2]].S.E.A.K.T.P.I.D}$$$$V2.0)
4960 nM

Give Kd for CC[C@H](C)[C@H](NC(=O)[C@H](Cc1c[nH]c2ccccc12)NC(=O)[C@H](CC(C)C)NC(=O)CNC(=O)[C@H](CCCCN)NC(=O)[C@H](Cc1ccc(OP(=O)(O)O)cc1)NC(=O)[C@@H](NC(=O)[C@@H](NC(=O)CNC(=O)[C@@H](N)Cc1ccccc1)[C@@H](C)O)C(C)C)C(=O)N1CCC[C@H]1C(=O)N[C@@H](CCC(=O)O)C(=O)N[C@@H](CC(=O)O)C(=O)O [ErbB1 pY727] (HELM PEPTIDE1{F.G.T.V.[O=C([C@H](Cc1ccc(OP(=O)(O)O)cc1)N[*:1])[*:2]].K.G.L.W.I.P.E.D}$$$$V2.0)
240 nM

----------
# PIK3R2-N SH2 domain (Homo sapiens): Kd values follow
# Sequence (O00459 330-425 limits assumed): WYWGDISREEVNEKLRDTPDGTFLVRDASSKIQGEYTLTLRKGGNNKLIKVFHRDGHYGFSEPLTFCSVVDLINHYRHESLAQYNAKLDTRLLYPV
Residues, ends and D or L forms follow the SMILES beside them.
Output spec: scalar in nM, unitless text.

Give Kd for CSCC[C@H](NC(=O)[C@@H](NC(=O)[C@H](Cc1ccc(OP(=O)(O)O)cc1)NC(=O)[C@H](C)NC(=O)[C@H](CCC(=O)O)NC(=O)[C@H](CC(=O)O)NC(=O)[C@@H](N)CC(C)C)C(C)C)C(=O)N[C@@H](C)C(=O)N[C@@H](CO)C(=O)N[C@H](C(=O)N[C@@H](CC(=O)O)C(=O)N[C@@H](CC(N)=O)C(=O)N[C@@H](CC(=O)O)C(=O)O)C(C)C [ErbB1 764 13-mer] (HELM PEPTIDE1{L.D.E.A.[O=C([C@H](Cc1ccc(OP(=O)(O)O)cc1)N[*:1])[*:2]].V.M.A.S.V.D.N.D}$$$$V2.0)
2360

Give Kd for `CC[C@H](C)[C@H](NC(=O)[C@H](CC(C)C)NC(=O)[C@H](Cc1ccc(OP(=O)(O)O)cc1)NC(=O)[C@H](CCC(=O)O)NC(=O)[C@H](CC(=O)O)NC(=O)[C@H](C)NC(=O)[C@@H](N)CC(=O)O)C(=O)N1CCC[C@H]1C(=O)N[C@@H](CCC(N)=O)C(=O)N[C@@H](CCC(N)=O)C(=O)NCC(=O)N[C@@H](Cc1ccccc1)C(=O)N[C@@H](CC(=O)O)C(=O)O`
2480

Give Kd for CSCC[C@H](NC(=O)[C@@H]1CCCN1C(=O)[C@@H](NC(=O)[C@H](Cc1ccc(OP(=O)(O)O)cc1)NC(=O)[C@H](C)NC(=O)[C@@H]1CCCN1C(=O)[C@@H]1CCCN1C(=O)[C@@H]1CCCN1)[C@@H](C)O)C(=O)N[C@@H](CO)C(=O)NCC(=O)N[C@@H](CC(N)=O)C(=O)N[C@@H](CCC(N)=O)C(=O)N[C@@H](CC(=O)O)C(=O)O [ErbB4 1056 13-mer] (HELM PEPTIDE1{P.P.P.A.[O=C([C@H](Cc1ccc(OP(=O)(O)O)cc1)N[*:1])[*:2]].T.P.M.S.G.N.Q.D}$$$$V2.0)
2960
